assay: Primary screening of photostability of the CyNA library (time-course fluorescence, 8 h); assay type: physicochemical; set-up: unit: %; conditions: 10 μM in HEPES 100 mM pH 7.4, 2% DMSO
Items are presented alongside their recorded F/Fo, fluorescent intensity at 8 hours vs 0 hours.
No unit in the answer, please; the number alone is enough.

INSERT INTO measurements (mol, observed_measurement) VALUES
  ('CCCN1/C(=C/C=C2\CCCC(/C=C/C3=[N+](CCC)c4ccccc4C3(C)C)=C2N(Cc2c(F)cccc2F)C(C)=O)C(C)(C)c2ccccc21', 93),
  ('CCCN1/C(=C/C=C2\CCCC(/C=C/C3=[N+](CCC)c4ccccc4C3(C)C)=C2N(Cc2ccccc2F)C(C)=O)C(C)(C)c2ccccc21', 98),
  ('CCCN1/C(=C/C=C2\CCCC(/C=C/C3=[N+](CCC)c4ccccc4C3(C)C)=C2N(Cc2cccc(C)c2)C(C)=O)C(C)(C)c2ccccc21', 99);

Inquiry: # return recorded F/Fo, fluorescent intensity at 8 hours vs 0 hours for input CCCN1/C(=C/C=C2\CCCC(/C=C/C3=[N+](CCC)c4ccccc4C3(C)C)=C2N(Cc2cccc(F)c2F)C(C)=O)C(C)(C)c2ccccc21
Reply text: 52

Inquiry: Indicate the recorded F/Fo, fluorescent intensity at 8 hours vs 0 hours value for this compound: CCCN1/C(=C/C=C2\CCCC(/C=C/C3=[N+](CCC)c4ccccc4C3(C)C)=C2N(CCc2ccc([N+](=O)[O-])cc2)C(C)=O)C(C)(C)c2ccccc21
Reply text: 85

Inquiry: Give F/Fo, fluorescent intensity at 8 hours vs 0 hours for the following compound: CCCN1/C(=C/C=C2\CCCC(/C=C/C3=[N+](CCC)c4ccccc4C3(C)C)=C2N(CCC(c2ccccc2)c2ccccc2)C(C)=O)C(C)(C)c2ccccc21
Reply text: 63

====

assay: Primary screen of SERS intensities of CyNAMLA-functionalized AuNPs (compact Raman scanner); assay type: physicochemical; conditions: SERS spectra of CyNAMLA-functionalized AuNPs; excitation at 785 nm, laser power 60 mW
reported-endpoint: Raman intensity

Illustrative cases are given below, each with its answer.
INSERT INTO assay_data (compound, reported_endpoint, observed_measurement) VALUES
  ('CCCN1/C(=C/C=C2\CCCC(/C=C/C3=[N+](CCCNC(=O)CCCCC4CCSS4)c4ccccc4C3(C)C)=C2N(CCN2CCCCC2)C(C)=O)C(C)(C)c2ccccc21.O=C([O-])C(F)(F)F (stereo not drawn)', 'Raman intensity', 1986),
  ('CCCN1/C(=C/C=C2\CCCC(/C=C/C3=[N+](CCCNC(=O)CCCCC4CCSS4)c4ccccc4C3(C)C)=C2N(C(C)=O)C2CCCCC2)C(C)(C)c2ccccc21.O=C([O-])C(F)(F)F (stereo not drawn)', 'Raman intensity', 4777),
  ('CCCN1/C(=C/C=C2\CCCC(/C=C/C3=[N+](CCCNC(=O)CCCCC4CCSS4)c4ccccc4C3(C)C)=C2N(Cc2ccc(Cl)c(Cl)c2)C(C)=O)C(C)(C)c2ccccc21.O=C([O-])C(F)(F)F (stereo not drawn)', 'Raman intensity', 14019),
  ('CCCN1/C(=C/C=C2\CCCC(/C=C/C3=[N+](CCCNC(=O)CCCCC4CCSS4)c4ccccc4C3(C)C)=C2N(Cc2ccc3c(c2)OCO3)C(C)=O)C(C)(C)c2ccccc21.O=C([O-])C(F)(F)F (stereo not drawn)', 'Raman intensity', 2271),
  ('CCCN1/C(=C/C=C2\CCCC(/C=C/C3=[N+](CCCNC(=O)CCCCC4CCSS4)c4ccccc4C3(C)C)=C2N(C(C)=O)C2CCN(Cc3ccccc3)CC2)C(C)(C)c2ccccc21.O=C([O-])C(F)(F)F (stereo not drawn)', 'Raman intensity', 2397);

Inquiry: Look up and state reported Raman intensity for CCCN1/C(=C/C=C2\CCCC(/C=C/C3=[N+](CCCNC(=O)CCCCC4CCSS4)c4ccccc4C3(C)C)=C2N(Cc2cccc(C)c2)C(C)=O)C(C)(C)c2ccccc21.O=C([O-])C(F)(F)F (stereo not drawn)
Reply text: 2629

Inquiry: Please look at this compound and report its Raman intensity: CCCN1/C(=C/C=C2\CCCC(/C=C/C3=[N+](CCCNC(=O)CCCCC4CCSS4)c4ccccc4C3(C)C)=C2N(CC(C)CC)C(C)=O)C(C)(C)c2ccccc21.O=C([O-])C(F)(F)F (stereo not drawn)
Reply text: 1763

Inquiry: Note down Raman intensity recorded for CCCN1/C(=C/C=C2\CCCC(/C=C/C3=[N+](CCCNC(=O)CCCCC4CCSS4)c4ccccc4C3(C)C)=C2N(Cc2ccc(OC)cc2OC)C(C)=O)C(C)(C)c2ccccc21.O=C([O-])C(F)(F)F (stereo not drawn) [CyNAMLA-181]
Reply text: 2109

Inquiry: Please list Raman intensity recorded for the compound CCCN1/C(=C/C=C2\CCCC(/C=C/C3=[N+](CCCNC(=O)CCCCC4CCSS4)c4ccccc4C3(C)C)=C2N(Cc2cc(OC)cc(OC)c2)C(C)=O)C(C)(C)c2ccccc21.O=C([O-])C(F)(F)F (stereo not drawn)
Reply text: 27810
